FYI, the data here is from paper PMC4808398.

target under test: CASTOR1-CASTOR2 heterodimer-GATOR2 complex (Homo sapiens)
pIC50: −log10 of the molar value.
recorded endpoint: pIC50

Q: What pIC50 appears in the records for this molecule with CASTOR1-CASTOR2 heterodimer-GATOR2 complex (Homo sapiens)? N=C(N)NCCC[C@H](N)C(=O)O [arginine]
Result: 4.40 to 4.70

###

target under test: CASTOR1 homodimer-GATOR2 complex (Homo sapiens, UniProt Q8WTX7)
Sequence (Q8WTX7 whole entry): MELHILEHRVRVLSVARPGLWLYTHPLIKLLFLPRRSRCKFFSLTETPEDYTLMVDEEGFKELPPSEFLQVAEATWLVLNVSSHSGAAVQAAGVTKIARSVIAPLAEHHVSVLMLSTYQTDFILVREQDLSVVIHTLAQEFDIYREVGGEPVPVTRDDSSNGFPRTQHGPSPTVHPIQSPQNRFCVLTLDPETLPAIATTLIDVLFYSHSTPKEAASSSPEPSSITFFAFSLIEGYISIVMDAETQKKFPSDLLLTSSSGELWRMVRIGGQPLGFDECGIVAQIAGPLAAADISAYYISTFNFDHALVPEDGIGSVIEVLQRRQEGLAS
Sequence (Q9NXC5 whole entry partner): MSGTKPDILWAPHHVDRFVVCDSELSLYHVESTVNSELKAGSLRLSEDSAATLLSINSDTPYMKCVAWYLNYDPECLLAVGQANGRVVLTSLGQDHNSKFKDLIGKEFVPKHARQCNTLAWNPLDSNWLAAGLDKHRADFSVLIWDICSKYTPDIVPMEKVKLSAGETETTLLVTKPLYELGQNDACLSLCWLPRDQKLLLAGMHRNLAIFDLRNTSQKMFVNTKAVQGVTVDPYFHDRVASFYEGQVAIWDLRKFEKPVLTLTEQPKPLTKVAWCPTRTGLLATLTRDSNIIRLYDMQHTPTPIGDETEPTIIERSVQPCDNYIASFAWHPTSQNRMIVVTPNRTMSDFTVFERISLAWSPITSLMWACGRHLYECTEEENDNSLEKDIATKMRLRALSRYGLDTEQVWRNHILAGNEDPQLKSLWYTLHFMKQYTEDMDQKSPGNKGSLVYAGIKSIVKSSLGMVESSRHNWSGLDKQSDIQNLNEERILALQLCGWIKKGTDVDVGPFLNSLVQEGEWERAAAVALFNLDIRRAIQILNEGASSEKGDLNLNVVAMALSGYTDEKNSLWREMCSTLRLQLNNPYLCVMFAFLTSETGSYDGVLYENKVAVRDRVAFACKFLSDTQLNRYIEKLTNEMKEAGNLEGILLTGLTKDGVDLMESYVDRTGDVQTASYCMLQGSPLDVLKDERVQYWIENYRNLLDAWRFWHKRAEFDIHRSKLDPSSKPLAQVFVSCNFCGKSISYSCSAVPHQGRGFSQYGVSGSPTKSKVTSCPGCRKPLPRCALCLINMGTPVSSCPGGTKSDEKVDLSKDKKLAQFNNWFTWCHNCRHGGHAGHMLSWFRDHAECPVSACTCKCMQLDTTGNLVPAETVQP
Sequence (Q96S15 whole entry partner): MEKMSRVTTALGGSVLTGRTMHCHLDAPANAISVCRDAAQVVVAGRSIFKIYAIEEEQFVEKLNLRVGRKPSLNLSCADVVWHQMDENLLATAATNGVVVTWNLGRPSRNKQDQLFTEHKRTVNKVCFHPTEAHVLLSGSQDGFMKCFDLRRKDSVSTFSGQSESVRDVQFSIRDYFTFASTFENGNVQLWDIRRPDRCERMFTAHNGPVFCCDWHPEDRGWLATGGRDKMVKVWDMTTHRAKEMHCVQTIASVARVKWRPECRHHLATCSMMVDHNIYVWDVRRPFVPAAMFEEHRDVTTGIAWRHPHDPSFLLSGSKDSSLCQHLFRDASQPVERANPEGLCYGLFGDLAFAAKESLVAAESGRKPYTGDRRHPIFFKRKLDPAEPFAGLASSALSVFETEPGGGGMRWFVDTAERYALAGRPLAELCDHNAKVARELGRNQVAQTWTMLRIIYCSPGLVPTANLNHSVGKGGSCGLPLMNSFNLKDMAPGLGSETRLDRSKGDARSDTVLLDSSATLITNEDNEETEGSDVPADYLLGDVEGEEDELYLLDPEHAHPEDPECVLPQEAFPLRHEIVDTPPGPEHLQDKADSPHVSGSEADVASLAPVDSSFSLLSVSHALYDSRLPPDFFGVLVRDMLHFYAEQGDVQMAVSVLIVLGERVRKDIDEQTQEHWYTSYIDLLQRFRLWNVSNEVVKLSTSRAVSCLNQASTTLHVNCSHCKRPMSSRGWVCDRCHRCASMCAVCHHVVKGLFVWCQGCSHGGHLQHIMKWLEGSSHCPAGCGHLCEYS
Sequence (Q6PJI9 whole entry partner): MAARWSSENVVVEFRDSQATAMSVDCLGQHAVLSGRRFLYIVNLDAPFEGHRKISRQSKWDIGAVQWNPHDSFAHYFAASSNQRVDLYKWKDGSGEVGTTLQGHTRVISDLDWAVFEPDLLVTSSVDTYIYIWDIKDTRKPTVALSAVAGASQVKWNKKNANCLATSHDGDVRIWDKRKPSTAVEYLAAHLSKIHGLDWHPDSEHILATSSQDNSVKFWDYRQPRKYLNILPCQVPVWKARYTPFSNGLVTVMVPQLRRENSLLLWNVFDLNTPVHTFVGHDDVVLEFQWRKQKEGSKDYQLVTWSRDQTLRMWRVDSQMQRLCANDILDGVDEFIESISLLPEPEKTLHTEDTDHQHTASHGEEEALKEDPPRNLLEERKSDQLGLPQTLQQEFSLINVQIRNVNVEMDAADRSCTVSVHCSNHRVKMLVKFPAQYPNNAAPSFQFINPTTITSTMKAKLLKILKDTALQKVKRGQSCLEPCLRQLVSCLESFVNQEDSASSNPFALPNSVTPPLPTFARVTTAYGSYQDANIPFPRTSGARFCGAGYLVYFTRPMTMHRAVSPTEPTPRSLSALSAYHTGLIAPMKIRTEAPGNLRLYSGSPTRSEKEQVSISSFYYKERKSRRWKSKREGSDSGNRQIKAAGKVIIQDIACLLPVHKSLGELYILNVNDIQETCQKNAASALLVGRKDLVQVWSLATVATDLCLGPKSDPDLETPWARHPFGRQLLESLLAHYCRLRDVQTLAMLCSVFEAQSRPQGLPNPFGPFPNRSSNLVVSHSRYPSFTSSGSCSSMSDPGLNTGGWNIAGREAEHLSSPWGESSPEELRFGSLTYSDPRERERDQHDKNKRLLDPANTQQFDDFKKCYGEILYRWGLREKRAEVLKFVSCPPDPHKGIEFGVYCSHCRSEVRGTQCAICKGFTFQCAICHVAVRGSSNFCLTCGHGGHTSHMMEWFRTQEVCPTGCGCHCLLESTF
Sequence (Q96EE3 whole entry partner): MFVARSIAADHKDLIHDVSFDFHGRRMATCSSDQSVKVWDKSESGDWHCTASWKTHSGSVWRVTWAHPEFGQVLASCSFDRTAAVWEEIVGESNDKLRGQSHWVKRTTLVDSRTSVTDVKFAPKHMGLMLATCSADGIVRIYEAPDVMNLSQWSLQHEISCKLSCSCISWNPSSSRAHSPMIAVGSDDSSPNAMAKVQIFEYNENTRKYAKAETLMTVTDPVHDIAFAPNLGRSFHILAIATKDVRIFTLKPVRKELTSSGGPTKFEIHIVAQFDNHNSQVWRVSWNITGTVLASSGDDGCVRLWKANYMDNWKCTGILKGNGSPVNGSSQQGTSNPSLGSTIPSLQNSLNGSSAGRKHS
Sequence (P55735 2-322 partner): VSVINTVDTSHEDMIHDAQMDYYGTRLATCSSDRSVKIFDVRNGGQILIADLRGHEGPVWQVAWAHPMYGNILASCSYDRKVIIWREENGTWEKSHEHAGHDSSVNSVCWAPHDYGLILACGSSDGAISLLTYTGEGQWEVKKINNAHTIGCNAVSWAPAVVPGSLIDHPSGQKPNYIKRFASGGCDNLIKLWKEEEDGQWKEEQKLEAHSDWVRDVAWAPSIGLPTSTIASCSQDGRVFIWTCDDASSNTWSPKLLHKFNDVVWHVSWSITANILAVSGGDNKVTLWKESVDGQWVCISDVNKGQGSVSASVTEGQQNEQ
recorded endpoint: IC50

Q: Observed IC50 on CASTOR1 homodimer-GATOR2 complex (Homo sapiens, UniProt Q8WTX7) for N=C(N)NCCC[C@H](N)C(=O)O [arginine] , please.
Result: 20 to 40 µM
